- Target or test system: 5-HT2B (Homo sapiens, UniProt P41595)
- Construct: Cerep (Eurofins, France)
- Sequence (P41595 whole entry): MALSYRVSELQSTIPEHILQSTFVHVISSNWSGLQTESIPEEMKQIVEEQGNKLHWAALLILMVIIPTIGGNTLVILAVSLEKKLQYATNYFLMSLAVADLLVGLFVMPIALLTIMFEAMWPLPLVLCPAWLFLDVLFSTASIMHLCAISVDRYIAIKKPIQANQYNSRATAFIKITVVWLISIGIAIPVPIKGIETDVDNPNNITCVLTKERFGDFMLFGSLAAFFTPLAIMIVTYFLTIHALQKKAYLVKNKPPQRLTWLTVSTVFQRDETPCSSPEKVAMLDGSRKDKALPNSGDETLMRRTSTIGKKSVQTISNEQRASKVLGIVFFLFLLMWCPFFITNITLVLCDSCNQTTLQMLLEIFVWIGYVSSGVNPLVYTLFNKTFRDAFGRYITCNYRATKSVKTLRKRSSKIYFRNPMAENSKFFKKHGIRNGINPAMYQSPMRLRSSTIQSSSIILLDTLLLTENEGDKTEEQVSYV
- Assay notes: Cerep cellular and nuclear receptor functional assay
- Condition description: read-out: IC50, antagonist effect
Parameter measured: pIC50
pIC50 is a log-scale quantity: -log10 of the concentration expressed in molar.

- Compound: "CC1(C)Cn2nc(-c3ccc4cc(OC5CC5)ccc4c3)c(C(N)=O)c2NC1O (centres unmarked) [M2]"
  pIC50: 4.70

Let us examine a further case.
Identify pIC50 associated with the compound Cn1ccc2cc3c(cc21)CCN3C(=O)Nc1cccnc1 [SB 206553, reference compound]
7.68

----------
- Assay notes: Hepatocyte stability
- Condition description: rat, primary hepatocytes
Parameter measured: hepatocyte CLint (µL/min/1e6 cells)
Answer in µL/min/1e6 cells, number only, no unit symbol.

Identify hepatocyte CLint associated with the compound CC1(C)Cn2nc(-c3ccc4cc(OC5CC5)ccc4c3)c(C(N)=O)c2NC1O (stereo not shown)
13.2
